# Test system: CP191
# ASSAY_COMMENT: qHTS profiling for inhibitors of Plasmodium falciparum proliferation (AID 504749); further: nearly all actives have a fitted effect of over 60% in size
# APPLIED_CONDITIONS: P. falciparum in erythrocytes, SYBR Green DNA, 72 h; series mostly up to 12.8 µM
Results filed as inconclusive are left out. Active and inactive are the calls of the source. The call rests on the fitted dose curve; in most records, active means well fitted inhibition curve with a large enough effect; inconclusive means small, poorly fitted or top-dose-only effect; inactive means flat fitted curve, though single readings scatter.
The reply should be one of these categories: active, inactive

Q: I would be grateful if you could indicate the recorded call for C/C1=C2N=C(/C=C3N=C(/C(C)=C4\[N-]C(C)(C5N=C1C(C)(CCC(=O)NCC(C)OP(=O)([O-])O[C@H]1C(O)C(n6cnc7cc(C)c(C)cc76)O[C@@H]1CO)C5CC(N)=O)C(C)(CC(N)=O)C4CCC(N)=O)C(C)(CC(N)=O)C\3CCC(N)=O)C(C)(C)C/2CCC(N)=O.[CH2-]C1OC(n2cnc3c(N)ncnc32)C(O)C1O.[Co] (stereo partly drawn) .
Ans: inactive

Q: I would be grateful if you could indicate the recorded call for CCOC(=O)O[C@@H](C)OC(=O)[C@@H]1N2C(=O)[C@@H](NC(=O)[C@@H](N)c3ccccc3)[C@H]2SC1(C)C .
Ans: inactive

Q: I would be grateful if you could indicate the recorded call for CNC[C@H](O)c1ccc(OC(=O)C(C)(C)C)c(OC(=O)C(C)(C)C)c1 .
Ans: inactive

Q: I would be grateful if you could indicate the recorded call for CC1(C)OC2CO[C@]3(COS(N)(=O)=O)OC(C)(C)OC3C2O1 (stereo partly drawn) .
Ans: inactive

Q: I would be grateful if you could indicate the recorded call for CN1CC(=O)N=C1N .
Ans: inactive

Q: I would be grateful if you could indicate the recorded call for CC1(C)[C@@H](OC(=O)CCC(=O)O)CC[C@@]2(C)[C@H]1CC[C@@]1(C)[C@H]2C(=O)C=C2[C@H]3C[C@](C)(C(=O)O)CC[C@]3(C)CC[C@@]21C .
Ans: inactive

Q: I would be grateful if you could indicate the recorded call for CC1(C)O[C@@H]2C[C@H]3[C@H]4C[C@H](F)C5=CC(=O)CC[C@]5(C)[C@@H]4[C@H](O)C[C@]3(C)[C@]2(C(=O)CO)O1 .
Ans: inactive

Q: I would be grateful if you could indicate the recorded call for NC[C@@H]1O[C@H](O[C@H]2[C@H](O)[C@H](O[C@@H]3O[C@H](CO)[C@@H](O)[C@H](N)[C@@H]3O)[C@@H](N)C[C@H]2N)[C@@H](O)[C@H](O)[C@@H]1O .
Ans: inactive

Q: I would be grateful if you could indicate the recorded call for CS(=O)(=O)c1ccc([C@H](O)[C@H](CO)NC(=O)C(Cl)Cl)cc1 .
Ans: inactive

Q: I would be grateful if you could indicate the recorded call for CNC1CC(N)[C@H](O)[C@@H](O[C@@H]2OC(CO)C3OC4(OC(C(N)CO)C(O)C(O)C4O)O[C@@H]3[C@H]2O)C1O (stereo partly drawn) .
Ans: inactive

Q: I would be grateful if you could indicate the recorded call for CC(=O)[C@@H]1CC[C@@H]2[C@@H]3C[C@H](C)C4=CC(=O)CC[C@@]4(C)[C@H]3[C@H](O)C[C@]21C .
Ans: inactive

Q: I would be grateful if you could indicate the recorded call for CN(C)CCOC(=O)[C@@H](c1ccccc1)C1(O)CCCC1 .
Ans: inactive

Q: I would be grateful if you could indicate the recorded call for CCCC(=O)O[C@]1(C(=O)CO)CCC2[C@@H]3CCC4=CC(=O)CC[C@]4(C)C3C(O)C[C@]21C (stereo partly drawn) .
Ans: inactive

Q: I would be grateful if you could indicate the recorded call for CN1CCN([C@@H](c2ccccc2)c2ccc(Cl)cc2)CC1 .
Ans: inactive

Q: I would be grateful if you could indicate the recorded call for CC(=O)OCC(=O)[C@@]12OC(C)(C)O[C@@H]1C[C@H]1[C@H]3C[C@H](F)C4=CC(=O)C=C[C@@]4(C)[C@]3(F)[C@H](O)C[C@@]12C .
Ans: inactive

Q: I would be grateful if you could indicate the recorded call for C=CCOc1ccccc1OC[C@H](O)CNC(C)C .
Ans: inactive

Q: I would be grateful if you could indicate the recorded call for CN(C)CCCOC1C(C(O)CO)OC2OC(C)(C)O[C@@H]21 (stereo partly drawn) .
Ans: inactive

Q: I would be grateful if you could indicate the recorded call for CC1(C)S[C@@H]2[C@H](NC(=O)[C@@H](N)c3ccccc3)C(=O)N2[C@H]1C(=O)O[C@H]1OC(=O)c2ccccc21 .
Ans: inactive

Q: I would be grateful if you could indicate the recorded call for COc1cc(N)c(Cl)cc1C(=O)N[C@H]1CCN(CCCOc2ccc(F)cc2)C[C@H]1OC .
Ans: active

Q: I would be grateful if you could indicate the recorded call for C[C@@H]1O[C@H](O[C@@H]2\C=C/C=C\C=C/C=C\C[C@H](C)OC(=O)/C=C\[C@H]3O[C@@H]3C[C@H](O)C[C@]3(O)C[C@@H](O)[C@@H](C(=O)O)[C@H](C2)O3)[C@@H](O)[C@H](N)[C@@H]1O (stereo in doubt) .
Ans: inactive

Q: I would be grateful if you could indicate the recorded call for CC(C)NC[C@H]1CCc2cc(CO)c([N+](=O)[O-])cc2N1 .
Ans: inactive

Q: I would be grateful if you could indicate the recorded call for C[C@H](Oc1ccccc1)C(=O)N[C@@H]1C(=O)N2[C@@H]1SC(C)(C)[C@@H]2C(=O)O .
Ans: inactive

Q: I would be grateful if you could indicate the recorded call for O=C(N/N=C\c1ccc([N+](=O)[O-])o1)c1ccc(O)cc1 .
Ans: active

Q: I would be grateful if you could indicate the recorded call for COc1ccc2cc(C(C)CO)ccc2c1 (stereo not drawn) .
Ans: inactive

Q: I would be grateful if you could indicate the recorded call for COc1ccc(C[C@@](C)(N)C(=O)O)cc1OC .
Ans: inactive

Q: I would be grateful if you could indicate the recorded call for c1ccc2c(c1)CCC[C@@H]2C1=NCCN1 .
Ans: inactive

Q: I would be grateful if you could indicate the recorded call for NC(C(=O)O)[C@@H]1CC(Cl)=NO1 (stereo partly drawn) .
Ans: active

Q: I would be grateful if you could indicate the recorded call for OCCN1CCN(CCC=C2c3ccccc3Sc3ccc(Cl)cc32)CC1 .
Ans: active

Q: I would be grateful if you could indicate the recorded call for OCC1OC([S-])[C@H](O)C(O)C1O.[Au+] (stereo partly drawn) .
Ans: inactive

Q: I would be grateful if you could indicate the recorded call for COC1C=CO[C@@]2(C)Oc3c(C)c(O)c4c(O)c(c5c(nc6cc(C)ccn65)c4c3C2=O)NC(=O)/C(C)=C\C=CC(C)C(O)[C@@H](C)C(O)C(C)[C@@H](OC(C)=O)C1C (stereo partly drawn) .
Ans: active

Q: I would be grateful if you could indicate the recorded call for CC[C@](C)(CN(C)C)OC(=O)c1ccccc1 .
Ans: inactive

Q: I would be grateful if you could indicate the recorded call for C[C@H]1CS(=O)(=O)CCN1/N=C\c1ccc([N+](=O)[O-])o1 .
Ans: inactive

Q: I would be grateful if you could indicate the recorded call for C1CCN2C[C@@H]3C[C@@H](CN4CCCC[C@H]34)[C@H]2C1 .
Ans: inactive

From: PubChem BioAssay (NCATS)
